Target: T1, biotinylated CD3 epsilon:delta heterodimer protein (Amsbio AMS.CDD-H52WO) (Homo sapiens (Human), UniProt P07766 23-126; P04234 22-105)
T1 construct: also called CD3 heterodimer
Experiment: BLI (Octet), CD3 on SA sensor, Fab analyte;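 also: fab analyte at several concentrations up to 300 nM, association 100 s then 300 s dissociation in buffer, biosensors blocked with biocytin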
Item-by-item account of kon
READOUT_TYPE: kon (M⁻¹ s⁻¹)

1) huSP34.35.12 Fab-H (Fab, V domains shown, also called HC35+LC12) VH: EVQLVESGGGLVQPGGSLRLSCAASGFTFNDYAMNWVRQAPGKGLEWVGRTRSKYNNYATYYAASVKGRFTISRDDSKNSLYLQMNSLKTEDTAMYYCVRHGNFGHSYVSWFAYWGQGTLVTVSS VL: QAVVTQPPSLTVSPGGTVTLTCGSSTGAVTTGHYANWVQQKPGQAPRGLIGGTNKRAPWTPARFSGSLSGGKAALTISGAQPEDEAEYYCALWYSNRWVFGGGTKLTVL	2.08e+06
2) huSP34.34.18 Fab-H (Fab, V domains shown, also called HC34+LC18) VH: EVQLVESGGGLVQPGGSLRLSCAASGFTFNTYAMNWVRQAPGKGLEWVGRIRSKYNNYATYYAASVKGRFTISRDDSKNSLYLQMNSLKTEDTAMYYCVRHGNFGHSYVSWFAYWGQGTLVTVSS VL: QAVVTQPPSLTVSPGGTVTLTCGSSTGAVTTGHYANWVQQKPGQAPRGLIGGTSNRAPWTPARFSGSLSGGKAALTISGAQPEDEAEYYCALWYSARWVFGGGTKLTVL	257000
